Test system: CAPAN-1 (Pancreatic Carcinoma)
Experiment: combination Emax (second highest fraction inhibited in the dose matrix, 72 h); higher = more inhibition; extreme values may be limits of the assay
For each entry below, report its combination Emax value.
Write the value as a bare number.

### Prompt Give the reported value of combination Emax for this record: Cc1cc2ncnn2cc1Nc1ncc2c(n1)n(C1CCOCC1)c(=O)n2C [AZD7648] + CN(C)CCCOc1ccc(-c2ccc3ncc4c(c3c2)n(C2CCOCC2)c(=O)n4C)cn1 [AZD0156] (first compound max 10 µM, 7x7, partner max 1 µM)
### Response 0.31

### Prompt Give the reported value of combination Emax for this record: C=CCn1c(=O)c2cnc(Nc3ccc(N4CCN(C)CC4)cc3)nc2n1-c1cccc(C(C)(C)O)n1 [AZD1775] + O=C(c1cc(Cc2n[nH]c(=O)c3ccccc23)ccc1F)N1CCN(C(=O)C2CC2)CC1 [Olaparib] (first compound max 1 µM, partner max 10 µM)
### Response 0.516

### Prompt Give the reported value of combination Emax for this record: CS(=O)(=O)CCNCc1ccc(-c2ccc3ncnc(Nc4ccc(OCc5cccc(F)c5)c(Cl)c4)c3c2)o1 [Lapatinib] + NC1(c2ccc(-c3nc4ccn5c(=O)[nH]nc5c4cc3-c3ccccc3)cc2)CCC1 [MK-2206] (first compound max 10 µM, 7x7, partner max 10 µM)
### Response 0.331

### Prompt Give the reported value of combination Emax for this record: CN(CCO)CC[C@H](CSc1ccccc1)Nc1ccc(S(=O)(=O)NC(=O)c2ccc(N3CCC([C@@H](O)c4ccccc4-c4ccc(Cl)cc4)CC3)cc2)cc1S(=O)(=O)C(F)(F)F [AZD4320] + Cn1cnc2c(F)c(Nc3ccc(Br)cc3Cl)c(C(=O)NOCCO)cc21 [Selumetinib] (first compound max 1 µM, 7x7, partner max 3 µM)
### Response 0.802

### Prompt Give the reported value of combination Emax for this record: Cc1c2c(nn1C)CSCc1cc(n(C)n1)CSc1cc(c3ccccc3c1)OCCCc1c(C(=O)O)n(C)c3c-2c(Cl)ccc13 [AZD5991] + CC(=O)O[C@H]1C(=O)[C@@]2(C)[C@H]([C@H](OC(=O)c3ccccc3)[C@]3(O)C[C@H](OC(=O)[C@H](O)[C@@H](NC(=O)c4ccccc4)c4ccccc4)C(C)=C1C3(C)C)[C@]1(OC(C)=O)CO[C@@H]1C[C@@H]2O [Paclitaxel] (first compound max 1 µM, 7x7, partner max 3 µM)
### Response 0.681

### Prompt Give the reported value of combination Emax for this record: Cc1nc(Nc2ncc(C(=O)Nc3c(C)cccc3Cl)s2)cc(N2CCN(CCO)CC2)n1 [Dasatinib] + CC(=O)Nc1cccc(-n2c(=O)n(C3CC3)c(=O)c3c(Nc4ccc(I)cc4F)n(C)c(=O)c(C)c32)c1 [Trametinib] (first compound max 2 µM, 7x7, partner max 1 µM)
### Response 0.615

### Prompt Give the reported value of combination Emax for this record: CN(C)CCCOc1ccc(-c2ccc3ncc4c(c3c2)n(C2CCOCC2)c(=O)n4C)cn1 [AZD0156] + O=C(c1cc(Cc2n[nH]c(=O)c3ccccc23)ccc1F)N1CCN(C(=O)C2CC2)CC1 [Olaparib] (first compound max 3 µM, partner max 3 µM)
### Response 0.295

###

For each entry below, report its Bliss excess value.
Test system: RPMI-6666 (Non-Cancerous);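 also: after 72 h of two-drug dosing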
Experiment: Bliss excess, mean over the matrix (fraction); higher = more synergy
Write the value as a bare number.

### Prompt Give the reported value of Bliss excess for this record: O=C(c1cc(Cc2n[nH]c(=O)c3ccccc23)ccc1F)N1CCN(C(=O)C2CC2)CC1 [Olaparib] + Cc1c2c(nn1C)CSCc1cc(n(C)n1)CSc1cc(c3ccccc3c1)OCCCc1c(C(=O)O)n(C)c3c-2c(Cl)ccc13 [AZD5991] (first compound max 10 µM, 7x7, partner max 1 µM)
### Response 0.017

### Prompt Give the reported value of Bliss excess for this record: COc1cc2c(cc1OCCCCCOc1cc3c(cc1OC)C(=O)N1C=C(C)C[C@H]1C=N3)N=C[C@@H]1CC(C)=CN1C2=O [SG3199] + O=C(c1cc(Cc2n[nH]c(=O)c3ccccc23)ccc1F)N1CCN(C(=O)C2CC2)CC1 [Olaparib] (first compound max 0.001 µM, 7x7, partner max 10 µM)
### Response 0.0028

### Prompt Give the reported value of Bliss excess for this record: CC1(C)CCC(CN2CCN(c3ccc(C(=O)NS(=O)(=O)c4ccc(NCC5CCOCC5)c([N+](=O)[O-])c4)c(Oc4cnc5[nH]ccc5c4)c3)CC2)=C(c2ccc(Cl)cc2)C1 [Venetoclax] + Cc1cc2ncnn2cc1Nc1ncc2c(n1)n(C1CCOCC1)c(=O)n2C [AZD7648] (first compound max 1 µM, 7x7, partner max 10 µM)
### Response -0.0477

### Prompt Give the reported value of Bliss excess for this record: COc1nnc2ccc(N3CCC(c4ccc(OCCN5CCN(C)C(=O)[C@H]5C)cc4)CC3)nn12 [AZD5153] + C[C@@H]1COCCN1C2=NC(=NC(=C2)C3(CC3)[S@](=N)(=O)C)C4=C5C=CNC5=NC=C4 [AZD6738] (first compound max 1 µM, 7x7, partner max 10 µM)
### Response -0.17

### Prompt Give the reported value of Bliss excess for this record: N#Cc1cnc(Nc2cc(NC[C@H]3CNCCO3)c(C(F)(F)F)cn2)cn1 [SRA737] + CCc1c2c(nc3ccc(O)cc13)-c1cc3c(c(=O)n1C2)COC(=O)[C@]3(O)CC [SN-38] (first compound max 10 µM, 7x7, partner max 0.3 µM)
### Response -0.0707

### Prompt Give the reported value of Bliss excess for this record: CC(=O)c1c(C)c2cnc(Nc3ccc(N4CCNCC4)cn3)nc2n(C2CCCC2)c1=O [Palbociclib] + Cc1c2c(nn1C)CSCc1cc(n(C)n1)CSc1cc(c3ccccc3c1)OCCCc1c(C(=O)O)n(C)c3c-2c(Cl)ccc13 [AZD5991] (first compound max 10 µM, 7x7, partner max 1 µM)
### Response -0.0533

### Prompt Give the reported value of Bliss excess for this record: CN(CCO)CC[C@H](CSc1ccccc1)Nc1ccc(S(=O)(=O)NC(=O)c2ccc(N3CCC([C@@H](O)c4ccccc4-c4ccc(Cl)cc4)CC3)cc2)cc1S(=O)(=O)C(F)(F)F [AZD4320] + CN(C)CCCOc1ccc(-c2ccc3ncc4c(c3c2)n(C2CCOCC2)c(=O)n4C)cn1 [AZD0156] (first compound max 1 µM, 7x7, partner max 1 µM)
### Response -0.0597

### Prompt Give the reported value of Bliss excess for this record: Cc1c2c(nn1C)CSCc1cc(n(C)n1)CSc1cc(c3ccccc3c1)OCCCc1c(C(=O)O)n(C)c3c-2c(Cl)ccc13 [AZD5991] + C[C@@H](Nc1cc(F)cc(F)c1)c1cc(C(=O)N(C)C)cc2c(=O)cc(N3CCOCC3)oc12 [AZD8186] (first compound max 1 µM, 7x7, partner max 3 µM)
### Response -0.0005

### Prompt Give the reported value of Bliss excess for this record: C[C@@H](Oc1cc(-c2cnn(C3CCNCC3)c2)cnc1N)c1c(Cl)ccc(F)c1Cl [Crizotinib] + CC1=C(C(=CC=C1)Cl)NC(=O)C2=CN=C(S2)NC3=CC(=NC(=N3)C)N4CCN(CC4)CCO [Dasatinib] (first compound max 10 µM, 7x7, partner max 2 µM)
### Response 0.0471

Data credit: the supplement of paper PMC11061612
